Consider the following compounds and their measured DC50 readings.
Molecular target: HiBit-WIZ fusion protein (Homo sapiens, UniProt O95785+Q96SW2)
Sequence (O95785 whole entry, the tested form may be a part): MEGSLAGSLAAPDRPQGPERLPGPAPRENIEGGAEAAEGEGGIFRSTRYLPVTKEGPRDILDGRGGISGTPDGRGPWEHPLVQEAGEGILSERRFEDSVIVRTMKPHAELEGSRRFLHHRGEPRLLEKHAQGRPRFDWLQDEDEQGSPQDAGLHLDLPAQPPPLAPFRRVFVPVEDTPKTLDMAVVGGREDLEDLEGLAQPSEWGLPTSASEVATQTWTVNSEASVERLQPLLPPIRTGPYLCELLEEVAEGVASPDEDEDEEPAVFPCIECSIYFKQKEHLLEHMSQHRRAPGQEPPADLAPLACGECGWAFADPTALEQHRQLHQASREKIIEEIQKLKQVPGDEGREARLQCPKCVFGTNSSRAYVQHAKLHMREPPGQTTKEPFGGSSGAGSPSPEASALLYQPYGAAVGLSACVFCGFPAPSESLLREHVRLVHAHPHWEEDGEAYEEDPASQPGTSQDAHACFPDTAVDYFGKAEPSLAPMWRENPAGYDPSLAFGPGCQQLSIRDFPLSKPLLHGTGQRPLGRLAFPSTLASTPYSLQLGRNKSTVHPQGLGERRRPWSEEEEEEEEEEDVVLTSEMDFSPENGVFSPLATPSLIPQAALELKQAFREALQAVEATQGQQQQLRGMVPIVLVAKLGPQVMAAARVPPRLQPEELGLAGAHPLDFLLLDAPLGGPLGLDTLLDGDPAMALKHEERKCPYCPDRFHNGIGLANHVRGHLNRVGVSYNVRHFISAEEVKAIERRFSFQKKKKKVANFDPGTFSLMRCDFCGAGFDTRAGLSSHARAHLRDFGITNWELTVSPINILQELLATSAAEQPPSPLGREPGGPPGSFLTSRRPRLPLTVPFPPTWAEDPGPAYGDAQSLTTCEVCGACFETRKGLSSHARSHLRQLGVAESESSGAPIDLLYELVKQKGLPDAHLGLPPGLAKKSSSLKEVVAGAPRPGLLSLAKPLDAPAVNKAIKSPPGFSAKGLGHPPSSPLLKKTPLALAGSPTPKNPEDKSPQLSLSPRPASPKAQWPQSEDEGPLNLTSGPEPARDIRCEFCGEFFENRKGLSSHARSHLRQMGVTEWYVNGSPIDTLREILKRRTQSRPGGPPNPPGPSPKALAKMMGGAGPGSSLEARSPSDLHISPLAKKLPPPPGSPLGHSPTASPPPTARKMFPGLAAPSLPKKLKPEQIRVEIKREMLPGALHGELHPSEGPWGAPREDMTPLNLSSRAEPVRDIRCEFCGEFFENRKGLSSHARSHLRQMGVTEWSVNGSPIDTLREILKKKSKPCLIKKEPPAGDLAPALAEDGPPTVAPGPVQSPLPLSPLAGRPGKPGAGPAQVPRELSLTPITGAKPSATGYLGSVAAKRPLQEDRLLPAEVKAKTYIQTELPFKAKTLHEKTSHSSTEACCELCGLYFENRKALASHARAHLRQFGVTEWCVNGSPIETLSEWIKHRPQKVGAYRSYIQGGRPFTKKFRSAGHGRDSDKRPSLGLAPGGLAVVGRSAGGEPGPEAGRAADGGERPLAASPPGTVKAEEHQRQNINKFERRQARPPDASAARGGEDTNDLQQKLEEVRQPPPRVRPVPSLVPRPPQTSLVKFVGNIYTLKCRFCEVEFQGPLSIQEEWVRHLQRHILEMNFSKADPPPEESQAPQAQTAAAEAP
Sequence (Q96SW2 whole entry, the tested form may be a part): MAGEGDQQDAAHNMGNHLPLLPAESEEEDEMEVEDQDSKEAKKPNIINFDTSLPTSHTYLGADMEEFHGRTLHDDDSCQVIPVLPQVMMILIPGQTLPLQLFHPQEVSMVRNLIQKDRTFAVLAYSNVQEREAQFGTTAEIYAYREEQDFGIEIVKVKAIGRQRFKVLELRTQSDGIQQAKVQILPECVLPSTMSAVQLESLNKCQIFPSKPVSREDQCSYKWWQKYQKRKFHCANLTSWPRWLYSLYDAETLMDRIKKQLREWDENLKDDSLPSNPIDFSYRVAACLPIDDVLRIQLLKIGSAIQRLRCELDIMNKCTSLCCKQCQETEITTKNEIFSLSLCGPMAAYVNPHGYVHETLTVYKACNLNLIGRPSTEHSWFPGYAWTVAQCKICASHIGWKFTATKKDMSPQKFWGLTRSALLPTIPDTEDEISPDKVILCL
Sequence (Q16531 whole entry partner, the tested form may be a part): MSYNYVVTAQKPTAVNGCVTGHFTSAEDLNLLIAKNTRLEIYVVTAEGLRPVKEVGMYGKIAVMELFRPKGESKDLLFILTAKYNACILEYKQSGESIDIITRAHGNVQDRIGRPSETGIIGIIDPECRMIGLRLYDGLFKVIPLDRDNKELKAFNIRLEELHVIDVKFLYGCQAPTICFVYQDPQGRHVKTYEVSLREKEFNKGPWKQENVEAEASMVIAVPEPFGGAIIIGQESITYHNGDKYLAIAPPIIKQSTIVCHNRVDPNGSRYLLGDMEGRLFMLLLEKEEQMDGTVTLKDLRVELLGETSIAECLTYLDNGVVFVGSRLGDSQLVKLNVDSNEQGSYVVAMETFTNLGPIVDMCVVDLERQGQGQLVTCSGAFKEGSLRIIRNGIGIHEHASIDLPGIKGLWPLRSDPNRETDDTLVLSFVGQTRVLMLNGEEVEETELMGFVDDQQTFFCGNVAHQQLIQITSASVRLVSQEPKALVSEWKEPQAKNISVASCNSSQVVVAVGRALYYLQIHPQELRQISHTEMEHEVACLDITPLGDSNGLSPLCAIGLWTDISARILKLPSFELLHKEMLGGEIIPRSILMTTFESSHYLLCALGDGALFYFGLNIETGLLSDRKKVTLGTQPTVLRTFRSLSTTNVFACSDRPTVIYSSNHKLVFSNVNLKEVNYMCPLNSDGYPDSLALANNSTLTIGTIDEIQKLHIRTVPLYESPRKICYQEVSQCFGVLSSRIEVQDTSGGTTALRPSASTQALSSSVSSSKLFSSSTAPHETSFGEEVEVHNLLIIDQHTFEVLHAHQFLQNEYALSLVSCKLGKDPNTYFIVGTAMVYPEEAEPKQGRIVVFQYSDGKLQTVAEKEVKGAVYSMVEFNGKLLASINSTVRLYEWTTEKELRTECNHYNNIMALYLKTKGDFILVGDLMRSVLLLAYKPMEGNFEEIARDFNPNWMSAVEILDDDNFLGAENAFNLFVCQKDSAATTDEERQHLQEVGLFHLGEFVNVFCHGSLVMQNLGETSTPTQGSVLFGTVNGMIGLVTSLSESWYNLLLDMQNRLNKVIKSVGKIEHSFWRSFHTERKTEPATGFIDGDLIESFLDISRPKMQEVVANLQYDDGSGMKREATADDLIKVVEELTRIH
Experiment: Quantification of WIZ protein levels in HiBit tag fusion protein assay (WIZ HiBit assay in 293T cells)
Assay type: cell-based
Conditions: WIZ HiBit assay in 293T cells; 10-point, 5-fold dose response, highest concentration 25 μM, about 18 hours; read-out: WIZ AC50

Known results for compounds:
>  <COMPOUND>
N#Cc1cc(CN2CCCC[C@H]2COc2ccc3c(c2)CN(C2CCC(=O)NC2=O)C3=O)ccn1 (stereo partly shown) [Compound I-50bl]

>  <EXPERIMENTAL_TARGET>
HiBit-WIZ fusion protein (Homo sapiens, UniProt O95785+Q96SW2)

>  <DC50>
> 25 µM

$$$$
>  <COMPOUND>
O=C1CCC(N2Cc3cc(OC[C@H]4CCCCN4Cc4ccccc4N4CCCCC4)ccc3C2=O)C(=O)N1 (stereo partly shown)

>  <EXPERIMENTAL_TARGET>
HiBit-WIZ fusion protein (Homo sapiens, UniProt O95785+Q96SW2)

>  <DC50>
0.01 µM

$$$$
>  <COMPOUND>
Cn1nnc2cc(CN3CCCC[C@H]3COc3ccc4c(c3)CN(C3CCC(=O)NC3=O)C4=O)ccc21 (stereo partly shown) [Compound I-50ah]

>  <EXPERIMENTAL_TARGET>
HiBit-WIZ fusion protein (Homo sapiens, UniProt O95785+Q96SW2)

>  <DC50>
> 25 µM

$$$$

Turning now to a further record.
What measured DC50 goes with N#Cc1cc(CN2CCCC[C@@H]2COc2ccc3c(c2)CN(C2CCC(=O)NC2=O)C3=O)ccn1 (stereo partly shown) [Compound I-50dn] ?
> 25 µM

----------
Biological target: HiBit-WIZ fusion protein (Homo sapiens, UniProt O95785+Q96SW2)
Assay: Quantification of WIZ protein levels in HiBit tag fusion protein assay (WIZ HiBit assay in 293T cells)
Format: cell-based
Details: WIZ HiBit assay in 293T cells; 10-point, 5-fold dose response, highest concentration 25 μM, about 18 hours; read-out: WIZ AC50
EXPERIMENTAL_READOUT: DC50

>  <COMPOUND>
O=C1CCC(N2Cc3cc(OC[C@@H]4CCCCN4C(=O)c4csc(-c5ccccc5)n4)ccc3C2=O)C(=O)N1 (stereo partly shown) [Compound I-72du]

>  <EXPERIMENTAL_TARGET>
HiBit-WIZ fusion protein (Homo sapiens, UniProt O95785+Q96SW2)

>  <DC50>
> 25 µM

$$$$

What measured DC50 goes with O=C1CCC(N2Cc3cc(OC[C@@H]4CCCCN4Cc4cocn4)ccc3C2=O)C(=O)N1 (stereo partly shown) [Compound I-50e] ?
> 25 µM

Next compound up: O=C1CCC(N2Cc3cc(OC[C@H]4CCCCN4Cc4cccc5c4NCC5)ccc3C2=O)C(=O)N1 (stereo partly shown) [Compound I-111]
0.011 µM

Next compound up: Cc1nnc(-c2ccc(CN3CCCC[C@H]3COc3ccc4c(c3)CN(C3CCC(=O)NC3=O)C4=O)cc2)o1 (stereo partly shown) [Compound I-50i]
> 25 µM

----------
Target: HiBit-WIZ fusion protein (Homo sapiens, UniProt O95785+Q96SW2)
Assay: Quantification of WIZ protein levels in HiBit tag fusion protein assay (WIZ HiBit assay in 293T cells)
Type: cell-based
Conditions: WIZ HiBit assay in 293T cells; 10-point, 5-fold dose response, highest concentration 25 μM, about 18 hours; read-out: WIZ AC50
EXPERIMENTAL_READOUT: DC50 (nM)

>  <COMPOUND>
Cn1ccc2c(CN3CCCC[C@@H]3COc3ccc4c(c3)CN(C3CCC(=O)NC3=O)C4=O)cccc21 (stereo partly shown) [Compound I-50dy]

>  <VALUE_MEASURED>
19

$$$$
>  <COMPOUND>
CC(C)(C)OC(=O)N1CCc2cccc(CN3CCCC[C@@H]3COc3ccc4c(c3)CN(C3CCC(=O)NC3=O)C4=O)c21 (stereo partly shown)

>  <VALUE_MEASURED>
8.6

$$$$
>  <COMPOUND>
O=C1CCC(N2Cc3cc(OC[C@@H]4CCCCN4Cc4c(F)cccc4Cl)ccc3C2=O)C(=O)N1 (stereo partly shown) [Compound I-50n]

>  <VALUE_MEASURED>
22

$$$$
>  <COMPOUND>
CC(C)(C)OC(=O)N1CCC(c2ccc(CN3CCCC[C@@H]3COc3ccc4c(c3)CN(C3CCC(=O)NC3=O)C4=O)cc2)CC1 (stereo partly shown)

>  <VALUE_MEASURED>
1.9

$$$$
>  <COMPOUND>
O=C1CCC(N2Cc3cc(OC[C@H]4CCCCN4Cc4ccc(F)cc4Cl)ccc3C2=O)C(=O)N1 (stereo partly shown)

>  <VALUE_MEASURED>
18

$$$$

(A) COc1ccccc1CN1CCCC[C@H]1COc1ccc2c(c1)CN(C1CCC(=O)NC1=O)C2=O (stereo partly shown) [Compound I-50d]
(B) O=C1CCC(N2Cc3cc(OC[C@H]4CCCCN4Cc4ccc(C5(C(F)(F)F)CC5)cc4)ccc3C2=O)C(=O)N1 (stereo partly shown)
Which record shows the lower DC50: the first, A , or the second, B ? Choose, then provide that item's label.
B
(B: 0.22 nM, A: 784 nM)

(a) O=C(O)Cn1cnc(CN2CCCC[C@@H]2COc2ccc3c(c2)CN(C2CCC(=O)NC2=O)C3=O)c1 (stereo partly shown) [Compound I-50da]
(b) Cn1ccc2c(CN3CCCC[C@H]3COc3ccc4c(c3)CN(C3CCC(=O)NC3=O)C4=O)cccc21 (stereo partly shown) [Compound I-50t]
(c) COc1ccc(CN2CCCC[C@@H]2COc2ccc3c(c2)CN(C2CCC(=O)NC2=O)C3=O)c(OC)c1 (stereo partly shown)
Highest DC50 first, then in falling order down to the smallest. Order the labels as requested and list them.
a, b, c
(a: 5130 nM, b: 269 nM, c: 0.52 nM)

(A) CC(C)(C)N1CCN(c2ccc(CN3CCCC[C@@H]3COc3ccc4c(c3)CN(C3CCC(=O)NC3=O)C4=O)cc2)CC1 (stereo partly shown)
(B) CC(C)(C)OC(=O)N1CCC(c2ccccc2CN2CCCC[C@@H]2COc2ccc3c(c2)CN(C2CCC(=O)NC2=O)C3=O)CC1 (stereo partly shown)
Pick the one with the larger DC50: A vs B Choose, then provide that item's label.
B
(B: 51 nM, A: 2 nM)

----------
Molecular target: HiBit-WIZ fusion protein (Homo sapiens, UniProt O95785+Q96SW2)
Experiment: Quantification of WIZ protein levels in HiBit tag fusion protein assay (WIZ HiBit assay in 293T cells)
Type: cell-based
Settings: WIZ HiBit assay in 293T cells; 10-point, 5-fold dose response, highest concentration 25 μM, about 18 hours; read-out: WIZ AC50
EXPERIMENTAL_READOUT: DC50 (nM)

Known results for compounds:
>  <COMPOUND>
O=C1CCC(N2Cc3cc(OC[C@H]4CCCCN4Cc4ccc(OCCN5CCOCC5)cc4)ccc3C2=O)C(=O)N1 (stereo partly shown) [Compound I-50cg]

>  <EXPERIMENTAL_TARGET>
HiBit-WIZ fusion protein (Homo sapiens, UniProt O95785+Q96SW2)

>  <EXPERIMENTAL_READOUT>
DC50

>  <VALUE_MEASURED>
43

$$$$
>  <COMPOUND>
O=C1CCC(N2Cc3cc(OC[C@@H]4CCCCN4C(=O)c4cnc(N5CCCCC5)s4)ccc3C2=O)C(=O)N1 (stereo partly shown) [Compound I-72fi]

>  <EXPERIMENTAL_TARGET>
HiBit-WIZ fusion protein (Homo sapiens, UniProt O95785+Q96SW2)

>  <EXPERIMENTAL_READOUT>
DC50

>  <VALUE_MEASURED>
2050

$$$$
>  <COMPOUND>
COc1c(F)cc(C(=O)N2CCCC[C@H]2COc2ccc3c(c2)CN(C2CCC(=O)NC2=O)C3=O)cc1F (stereo partly shown) [Compound I-72eg]

>  <EXPERIMENTAL_TARGET>
HiBit-WIZ fusion protein (Homo sapiens, UniProt O95785+Q96SW2)

>  <EXPERIMENTAL_READOUT>
DC50

>  <VALUE_MEASURED>
2250

$$$$

(P) Cn1nc(CN2CCCC[C@H]2COc2ccc3c(c2)CN(C2CCC(=O)NC2=O)C3=O)cc1-c1ccccc1 (stereo partly shown) [Compound I-50bc]
(Q) CC(C)N1CCC(CN2CCCC[C@@H]2COc2ccc3c(c2)CN(C2CCC(=O)NC2=O)C3=O)CC1 (stereo partly shown) [Compound I-50ea]
(R) Cc1cc(CN2CCCC[C@@H]2COc2ccc3c(c2)CN(C2CCC(=O)NC2=O)C3=O)no1 (stereo partly shown) [Compound I-50eq]
Highest DC50 first, then in falling order down to the smallest. Order the labels as requested and list them.
Q, R, P
